Target: recombinant human LTA4 hydrolase (rhLTA4H) (Homo sapiens, UniProt P09960)
Assay: Recombinant human LTA4 hydrolase assay for LTA4 hydrolase inhibitor activity
Conditions: Recombinant Human LTA4 Hydrolase Assay IC50 LTA4H, recombinant hLTA4H
Recorded IC50 determines the label; the label ranges are Low (below 200 nM), Medium (200 nM to below 600 nM), High (600 nM or more)

1) c1ccc(Cc2ccc(OCCN3CCCCCCC3)cc2)cc1 [Example 398] = Medium
2) c1ccc(Oc2ccc(OCCCn3cccc4ncnc3-4)cc2)cc1 [350 C] = High
3) O=C(O)C1C2CN(CCOc3ccc(Cc4ccccc4)cc3)CC21 (stereo not shown) [Example 435] = Medium
4) c1ccc(Cc2ccc(OC(Cc3ccccc3)CN3CCCC3)cc2)cc1 (stereo not shown) [Example 406] = Medium
5) NC(=O)CCNCCCOc1ccc(Cc2ccccc2)cc1 [Example 423] = Medium

Request: Any idea which band c1ccc(Oc2ccc(OCCn3ccc4ncnc-4c3)cc2)cc1 [349 C] is in?
Result: Low

Request: Tag the class for O=C(CCl)NC1CCN(CCOc2ccc(Cc3ccccc3)cc2)C1 (stereo not shown) [Example 454]
Result: Low

Request: Textbook exercise: identify the category of the compound given here, NC(=O)C1CCCN(CCOc2ccc(Oc3ccccc3)cc2)C1 (stereo not shown) [Example 253] , according to its measured value.
Result: High

Request: Kindly state the category for this compound: Fc1ccccc1COc1ccc(OCCN2CCCC2)cc1 [Example 207]
Result: Medium

Request: Which of the defined bands does the recorded IC50 of c1ccc(Cc2ccc3c(c2)CC(Cn2ccc4ncnc-4c2)O3)cc1 (stereo not shown) [358 C] sit within?
Result: Low

Request: Category of c1ccc(Oc2ccc(OCCCn3cnc4cnccc43)cc2)cc1 [351 B] :
Result: Medium

Request: For NC(=O)C1(O)CCN(CCOc2ccc(Cc3ccccc3)cc2)CC1 [Example 427] , which IC50 bin applies?
Result: Medium

Request: Field: class (IC50) — entry: NC(=O)C1CCN(CC2Cc3cc(Cc4ccccc4)cnc3O2)CC1 (stereo not shown) [Example 288]
Result: High

Request: Record c1ccc(Cc2ccc(OCCN3CCC4(CC3)OCCO4)cc2)cc1 [Example 246] — which class?
Result: High

Request: Looking at Cc1cc(OCCN2CCCC2)ccc1Cc1ccccc1 [Example 118] , which class would you pick?
Result: High

Request: Which band does CCC(CN1CCCC1)Oc1ccc(Cc2ccccc2)cc1 (stereo not shown) [Example 405] fall in?
Result: Medium

Request: Which class does CCOC(=O)C1CCN(CC2Cc3cc(Oc4ccccc4)ccc3O2)CC1 (stereo not shown) [Example 291] fall in?
Result: High

Request: Which bin should I file [O-][n+]1ccc2ncn(CCOc3ccc(Cc4ccccc4)cc3)c2c1 [Example 364] under?
Result: Low

Request: Which class is correct for the following compound? C[C@H]1C[C@@H](O)CCN1CCOc1ccc(Cc2ccccc2)cc1 (relative stereo) [Example 465]
Result: Medium

Request: Hi there! Could you help me figure out the category for c1ccc(Cc2cnc3c(c2)CC(CN2CCCC2)O3)cc1 (stereo not shown) [Example 287] please?
Result: Medium

Request: Which class is correct for the following compound? c1ccc(COc2ccc(OCCn3cnc4ncccc43)cc2)cc1 [346 B]
Result: High

----------
Biological target: recombinant human LTA4 hydrolase (rhLTA4H) (Homo sapiens)
Experiment: Recombinant human LTA4 hydrolase assay for LTA4 hydrolase inhibitor activity
Conditions: Recombinant Human LTA4 Hydrolase Assay IC50 LTA4H, recombinant hLTA4H
reported_endpoint: pIC50
Keep it numeric: pIC50 is minus log10 of the concentration in mol/L.

Below: 4 molecules and their reported pIC50.
1) Fc1ccc(COc2ccc(OCCN3CCCC3)cc2)cc1 = 6.05
2) Fc1ccc(Oc2ccc(OCCn3cnc4ccncc43)cc2)cc1 = 5.86
3) O=C(OCc1ccccc1)C1CCCN1CCCOc1ccc(Cc2ccccc2)cc1 (stereo not drawn) = 5.90
4) Fc1ccc(Cc2ccc(OCCN3CCCC3)cc2)cc1 = 6.96

Request: State the recorded pIC50 for this entry: c1ccc(Cc2ccc(OCCCn3cnc4ncccc43)cc2)cc1
Result: 6.85

Request: // pIC50 lookup, key: CCOC(=O)C1CCN(CCOc2ccc(Cc3cccs3)cc2)CC1
Result: 6.03

----------
Target: recombinant human LTA4 hydrolase (rhLTA4H) (Homo sapiens, UniProt P09960)
Sequence (P09960 1-611): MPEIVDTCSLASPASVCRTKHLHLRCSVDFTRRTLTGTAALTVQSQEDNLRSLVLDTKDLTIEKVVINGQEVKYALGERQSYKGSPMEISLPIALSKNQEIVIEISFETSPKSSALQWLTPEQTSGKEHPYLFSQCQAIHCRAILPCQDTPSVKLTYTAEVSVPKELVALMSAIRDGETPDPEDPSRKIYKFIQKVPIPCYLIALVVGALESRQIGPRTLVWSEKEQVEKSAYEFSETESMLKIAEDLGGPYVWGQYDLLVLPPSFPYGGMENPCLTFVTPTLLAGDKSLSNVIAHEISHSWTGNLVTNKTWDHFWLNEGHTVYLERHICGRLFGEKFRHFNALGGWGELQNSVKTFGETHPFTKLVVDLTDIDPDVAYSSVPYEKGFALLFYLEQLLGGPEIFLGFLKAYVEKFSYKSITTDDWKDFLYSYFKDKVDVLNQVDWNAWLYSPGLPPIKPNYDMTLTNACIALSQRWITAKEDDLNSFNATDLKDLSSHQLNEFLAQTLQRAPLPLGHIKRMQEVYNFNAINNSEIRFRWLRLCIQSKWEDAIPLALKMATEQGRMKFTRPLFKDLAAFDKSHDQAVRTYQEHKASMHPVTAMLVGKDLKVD
Experiment: Recombinant human LTA4 hydrolase assay for LTA4 hydrolase inhibitor activity
Details: Recombinant Human LTA4 Hydrolase Assay IC50 LTA4H, recombinant hLTA4H
reported_endpoint: pIC50
The quantity pIC50 is defined as the negative base-10 logarithm of the molar concentration.

Consider the reported pIC50 for these compounds:
1) NC(=O)C1CCN(CCOc2ccc(Cc3nccs3)cc2)CC1 = 5.30
2) CN(CCCOc1ccc(Cc2ccccc2)cc1)CC(C)(C)C(=O)OCc1ccccc1 = 4.92
3) CS(=O)(=O)N1CCN(CCOc2ccc(Cc3ccccc3)cc2)CC1 = 4.08
4) c1ccc(Cc2ccc3c(c2)CC(Cn2cccc4ncnc2-4)O3)cc1 (stereo not shown) = 5.46
5) c1ccc(Cc2ccc3c(c2)CC(Cn2cnc4ccncc42)O3)cc1 (stereo not shown) = 5.81
6) c1ccc(COc2ccc(OCCn3cnc4cnccc43)cc2)cc1 = 5.72

Request: Field request: pIC50 | item: c1ccc2c(COc3ccc(OCCN4CCCC4)cc3)cccc2c1
Result: 5.55

Request: Query: pIC50; subject: CCOC(=O)CCN(CCCOc1ccc(Cc2ccccc2)cc1)Cc1cccnc1
Result: 4.96

Request: Fill blank: measured pIC50 of the compound Fc1ccc(Oc2ccc(OCCn3cnc4cnccc43)cc2)cc1 is ____.
Result: 6.06

Request: Report pIC50 for COC(=O)CCN(C)CCCOc1ccc(Cc2ccc(F)cc2)cc1 please.
Result: 4.85

----------
Molecular target: recombinant human LTA4 hydrolase (rhLTA4H) (Homo sapiens, UniProt P09960)
Sequence (P09960 1-611): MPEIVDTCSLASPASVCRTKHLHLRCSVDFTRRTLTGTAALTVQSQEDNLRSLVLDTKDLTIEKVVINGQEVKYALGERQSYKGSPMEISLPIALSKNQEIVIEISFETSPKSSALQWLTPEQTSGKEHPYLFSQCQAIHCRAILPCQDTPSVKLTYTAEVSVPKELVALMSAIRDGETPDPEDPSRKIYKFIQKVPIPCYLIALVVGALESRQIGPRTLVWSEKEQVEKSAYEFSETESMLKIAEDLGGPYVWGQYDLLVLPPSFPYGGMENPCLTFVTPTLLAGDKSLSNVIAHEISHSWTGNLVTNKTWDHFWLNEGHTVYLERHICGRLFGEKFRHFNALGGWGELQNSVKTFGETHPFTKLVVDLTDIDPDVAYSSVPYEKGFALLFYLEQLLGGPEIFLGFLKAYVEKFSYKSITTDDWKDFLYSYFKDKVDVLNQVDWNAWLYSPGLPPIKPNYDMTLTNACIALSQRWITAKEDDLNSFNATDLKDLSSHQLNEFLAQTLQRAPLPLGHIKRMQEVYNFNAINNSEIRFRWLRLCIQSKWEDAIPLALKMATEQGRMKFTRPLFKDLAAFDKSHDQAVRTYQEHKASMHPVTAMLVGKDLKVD
Assay: Recombinant human LTA4 hydrolase assay for LTA4 hydrolase inhibitor activity
Conditions: Recombinant Human LTA4 Hydrolase Assay IC50 LTA4H, recombinant hLTA4H
List of IC50 values.
API: value field is a number in nM; no unit string.

Illustrative cases are given below, each with its answer.
1) COC(=O)CCN(C)CCCOc1ccc(Cc2ccccc2)s1 = 900
2) NC(=O)C1CCCN(CCOc2ccc(Cc3ccccc3)cc2)C1 (stereo not shown) = 70

Next up:
Request: Record request: IC50 value, item c1ccc(Cc2ccc(OCCNC3CCCCC3)cc2)cc1
Result: 1070
